The values you see were collected from PubChem BioAssay (Tox21).

assay: A CellTox Green Cytotoxicity Assay to monitor cytotoxicity in HEK293 cells - 40 hour (AID 1224871); settings: CellTox Green fluorescence; series mostly up to 76.8 µM; note: nearly all actives have a fitted effect of over 45% in size
Inconclusive results are not listed. Active and inactive are the calls of the source. Calls come from the whole dose curve; as a rule, active = well fitted activation curve with a large enough effect in the repeat runs; inconclusive = weak or mixed curves; inactive = flat fitted curve, though single readings scatter.
Outcome codes: active, inactive

>>> cat("N#CCC#N")
"inactive"
>>> cat("C=CCOC(C)=O")
"inactive"
>>> cat("CC(=O)CCC(C)=O")
"inactive"
>>> cat("c1ccc(CN2CCNCC2)cc1")
"inactive"
>>> cat("CN(C)c1ccc(N(C)C)cc1")
"inactive"
>>> cat("N#Cc1ccc(Cl)cc1")
"inactive"
>>> cat("C=CC(=O)OC(C)(C)C")
"inactive"
>>> cat("O=[N+]([O-])c1ccc(F)c([N+](=O)[O-])c1")
"inactive"
>>> cat("CCCC(=O)Cl")
"inactive"
>>> cat("C#CCOC(C(=O)OCCN(C)C)(c1ccccc1)c1ccccc1")
"inactive"
>>> cat("COC(=O)c1cncn1C(C)c1ccccc1 (stereo not given)")
"inactive"
>>> cat("COP(=S)(OC)Oc1ccc([N+](=O)[O-])cc1Cl")
"inactive"
>>> cat("OCCCBr")
"inactive"
>>> cat("c1ccoc1")
"inactive"
>>> cat("O=Cc1ccc(Cl)cc1Cl")
"inactive"
>>> cat("O=NN1CCCCCC1")
"inactive"
>>> cat("C=CC(=O)OCCCCO")
"inactive"
>>> cat("COC(=O)C(C)N(C(=O)Cc1ccccc1)c1c(C)cccc1C (stereo not given)")
"inactive"
>>> cat("CN1C(=O)C(O)N=C(c2ccccc2)c2cc(Cl)ccc21 (stereo not given)")
"inactive"
>>> cat("CCCN(CC1CC1)c1c([N+](=O)[O-])cc(C(F)(F)F)cc1[N+](=O)[O-]")
"inactive"
>>> cat("CC(Cl)C(C)Cl (stereo not given)")
"inactive"
>>> cat("Cn1cc[n+](C)c1 (tested in a mixture with another compound)")
"inactive"
>>> cat("CCBr")
"inactive"
>>> cat("CCCN(CCCl)c1c([N+](=O)[O-])cc(C(F)(F)F)cc1[N+](=O)[O-]")
"inactive"
>>> cat("COc1cc(Cl)c(OC)cc1Cl")
"inactive"
>>> cat("C[C@H]1CNCCc2ccc(Cl)cc21")
"inactive"
>>> cat("CS/C(C)=N/OC(=O)N(C)SN(C)C(=O)O/N=C(\\C)SC")
"active"
>>> cat("O=Cc1ccc2c(c1)OCO2")
"inactive"
>>> cat("CC(=O)C(C)(C)C")
"inactive"
>>> cat("CC1C(=O)C[C@]2(C(C)C)C[C@H]12 (stereo not given in full)")
"inactive"
>>> cat("Cc1cc(=O)[nH]o1")
"inactive"
>>> cat("CC(C)O.CC(C)O.OCCN(CCO)CCO.OCCN(CCO)CCO.[Ti]")
"inactive"
>>> cat("COP(=S)(Oc1cc(Cl)c(Br)cc1Cl)c1ccccc1 (stereo not given)")
"inactive"
>>> cat("COCC(C)N(C(=O)CCl)c1c(C)csc1C (stereo not given)")
"inactive"
>>> cat("O=S(=O)(Cl)c1ccccc1")
"inactive"
>>> cat("O=C=Nc1ccc(Cl)cc1")
"inactive"
>>> cat("O=[N+]([O-])c1ccccc1CCl")
"inactive"
>>> cat("CCOP(=O)(OCC)Oc1ccc([N+](=O)[O-])cc1")
"inactive"
>>> cat("Cc1ccc(N)cc1C")
"inactive"
>>> cat("CN1C(=O)NC(=O)C(C)(C2=CCCCC2)C1=O (stereo not given)")
"inactive"
>>> cat("BrCC(Br)C1CCC(Br)C(Br)C1 (stereo not given)")
"inactive"
>>> cat("CCCCc1c(C)nc(NCC)nc1OS(=O)(=O)N(C)C")
"inactive"
>>> cat("COC(N)=O")
"inactive"
>>> cat("CC(c1ccc(O)cc1)(c1ccc(O)cc1)c1ccc(O)cc1")
"inactive"
>>> cat("CCCCOC(=O)c1ccccc1C(=O)OCc1ccccc1")
"inactive"
>>> cat("COc1nn(CSP(=S)(OC)OC)c(=O)s1")
"inactive"
>>> cat("C=CC(C)=O")
"inactive"
>>> cat("C/C(=C\\c1ccccc1)[N+](=O)[O-]")
"active"
>>> cat("O=C1C(=O)c2cccc3cccc1c23")
"inactive"
>>> cat("CC(=O)NC1CCSC1=O (stereo not given)")
"inactive"
>>> cat("CCOc1nc(F)cc2nc(S(=O)(=O)Nc3c(Cl)cccc3Cl)nn12")
"inactive"
>>> cat("O=C(CBr)Nc1ccc(Cl)cc1C(=O)c1ccccc1F")
"inactive"
>>> cat("Nc1nc(N)nc(N)n1")
"inactive"
>>> cat("Clc1cc(Cl)c(Cl)c(Cl)c1")
"inactive"
>>> cat("CCCCN=C=O")
"inactive"
>>> cat("NS(=O)(=O)C(F)(F)C(F)(F)C(F)(F)C(F)(F)C(F)(F)C(F)(F)C(F)(F)C(F)(F)F")
"inactive"
>>> cat("Clc1ccc(C2(Cn3cncn3)CC(Br)CO2)c(Cl)c1 (stereo not given)")
"inactive"
>>> cat("Nc1ccc([N+](=O)[O-])cc1[N+](=O)[O-]")
"inactive"
>>> cat("c1cc2ccc3cccc4ccc(c1)c2c34")
"inactive"
>>> cat("NC(=O)C(Cl)(Cl)Cl")
"inactive"
